These entries and their values trace back to ChEMBL document CHEMBL3091360.

Tested on: HCT-8
Test: Cytotoxicity against human HCT8 cells at 10 uM after 96 hrs by MTT assay
Assay type: functional, cell-based
Calls of active or inactive are those of the source. The calls are words filed in the database; no cut-off is given here.
Quantity: Activity

COc1cc(C(=O)O)ccc1O[C@@H]1O[C@H](COC(=O)c2ccccc2)[C@@H](O)[C@H](O)[C@H]1O = inactive
COC(=O)[C@]1(O)C[C@@H](O)[C@@H](O)[C@H](OC(=O)/C=C/c2ccc(O)c(O)c2)C1 = inactive
COC(=O)C1=CO[C@@H]2C[C@H]1C[C@@H]1C(C(=O)OC)=CO[C@@H](O[C@@H]3O[C@H](CO)[C@@H](O)[C@H](O)[C@H]3O)[C@@H]12 = inactive
